Assignment: determine reported GI50 for the given compounds.
- Test system: colon adenocarcinoma (LoVo)
- ASSAY_EXPLANATION: Phototoxicity after UV-A irradiation, MTT test
- Format: cell-based, human
- MEASUREMENT_SETUP: Homo sapiens, light or radiation study, 72 h, UV-A 2.5 J/cm^2, 72 h after irradiation, mean ± SEM
Answers are plain numbers, in nM.

CCOC(=O)c1cc2c(n1Cc1ccc(C)cc1)-c1[nH]c(=O)c(S(=O)(=O)c3ccccc3)cc1CC2
1600

Now for the compound whose GI50 we want.
Give its GI50 value. Item: Cc1ccc(Cn2ccc3c2-c2[nH]c(=O)c(S(=O)(=O)c4ccccc4)cc2CC3)cc1
2700

----------
- Test system: colon adenocarcinoma (LoVo)
- ASSAY_EXPLANATION: Phototoxicity after UV-A irradiation, MTT test
- Type: cell-based, human
- MEASUREMENT_SETUP: Homo sapiens, light or radiation study, 72 h, UV-A 2.5 J/cm^2, 72 h after irradiation, mean ± SEM
Task for the reader: assign each of the following compounds its reported GI50.
Numbers only, in µM.

Look over these answered cases.
CCOC(=O)c1cc2c(n1C)-c1[nH]c(=O)c(S(=O)(=O)c3ccccc3)cc1CC2 [Compound 9j]
1.1
O=c1ccc2ccc3occc3c2o1 [Ang, angelicin, reference compound]
3.6
O=c1[nH]c2c(cc1S(=O)(=O)c1ccccc1)CCc1ccn(Cc3ccccc3)c1-2 [Compound 9e]
2.6
CCOC(=O)c1cc2c(n1Cc1ccccc1)-c1[nH]c(=O)c(S(=O)(=O)c3ccccc3)cc1CC2 [Compound 9k]
0.9

Now let's try a different one.
I have this compound here, CCOC(=O)c1cc2c([nH]1)-c1[nH]c(=O)c(S(=O)(=O)c3ccccc3)cc1CC2 [Compound 9i] , and I need its recorded GI50.
5.5

----------
- Tested on: colon adenocarcinoma (LoVo)
- ASSAY_EXPLANATION: Phototoxicity after UV-A irradiation, MTT test
- Type: cell-based, human
- MEASUREMENT_SETUP: Homo sapiens, light or radiation study, 72 h, UV-A 2.5 J/cm^2, 72 h after irradiation, mean ± SEM
- Method: The evaluation of phototoxic activity was carried out in some human tumour cell lines: T-cell leukaemia (Jurkat), chronic myeloid leukaemia (K-562), colon adenocarcinoma (LoVo) and breast adenocarcinoma (MCF-7). […]
PARAMETER: GI50

O=c1[nH]c2c(cc1S(=O)(=O)c1ccccc1)CCc1cc[nH]c1-2
> 20 µM

Would you be so kind as to report GI50 for each listed record?
1. Cn1ccc2c1-c1[nH]c(=O)c(S(=O)(=O)c3ccccc3)cc1CC2
2. O=c1[nH]c2c(cc1S(=O)(=O)c1ccccc1)CCc1ccn(S(=O)(=O)c3ccccc3)c1-2

> 20 µM
> 20 µM
